- METHOD SUMMARY: Lipophilicity, log D of the compound in octanol/water system at pH 7 by shake-flask assay based HPLC analysis
- Assay type: physicochemical
ASSAY ENDPOINT: logD

CC(C)Cc1ccc(C(C)C(=O)O)cc1 (stereo not given) : 1.07
CCn1cc(C(=O)O)c(=O)c2ccc(C)nc21 : 0.35

(1) CCCCC(=O)N(Cc1ccc(-c2ccccc2-c2nnn[nH]2)cc1)[C@H](C(=O)O)C(C)C
(2) Cc1cccc(C)c1NC(=O)C1CCCCN1C (stereo not given) [MEPIVACAINE]
(3) Nc1cccc(O)c1
Arrange the 3 compounds by rising logD, starting with the smallest. Arrange the labels as the request states and list them. 1, 3, 2
